# credit: patent US7642221B2

Listing: degree of damage to the plants, Abutilon of selected compounds
- Test system: Abutilon
- Assay protocol: Pre-emergence test/greenhouse
- Type: in vivo
- Conditions: greenhouse, 250 g of ai/ha, rated after three weeks
Kindly answer with a numeric value in %, unit omitted.

Example results:
Compound: COC(=O)c1csc(C)c1S(=O)(=O)NC(=O)n1nc(C2CC2)n(C2CC2)c1=O [Example 9]
degree of damage to the plants, Abutilon (%): 100
//
Compound: COC(=O)c1csc(C)c1S(=O)(=O)NC(=O)n1nc(C)n(C)c1=O [Example 10]
degree of damage to the plants, Abutilon (%): 95
//
Compound: COC(=O)c1csc(C)c1S(=O)(=O)NC(=O)n1nc(OC)n(C2CC2)c1=O [Example 5]
degree of damage to the plants, Abutilon (%): 95

API: value(readout=degree of damage to the plants, Abutilon, system=Abutilon) for record CCOc1nn(C(=O)NS(=O)(=O)c2c(C(=O)OC)csc2C)c(=O)n1C1CC1 [Example 6] 100

API: value(readout=degree of damage to the plants, Abutilon, system=Abutilon) for record CCCOc1nn(C(=O)NS(=O)(=O)c2c(C(=O)OC)csc2C)c(=O)n1C1CC1 [Example 7] 95
